- System tested: Delta-type opioid receptor (Homo sapiens) (UniProt P41143)
- Sequence (P41143 whole entry): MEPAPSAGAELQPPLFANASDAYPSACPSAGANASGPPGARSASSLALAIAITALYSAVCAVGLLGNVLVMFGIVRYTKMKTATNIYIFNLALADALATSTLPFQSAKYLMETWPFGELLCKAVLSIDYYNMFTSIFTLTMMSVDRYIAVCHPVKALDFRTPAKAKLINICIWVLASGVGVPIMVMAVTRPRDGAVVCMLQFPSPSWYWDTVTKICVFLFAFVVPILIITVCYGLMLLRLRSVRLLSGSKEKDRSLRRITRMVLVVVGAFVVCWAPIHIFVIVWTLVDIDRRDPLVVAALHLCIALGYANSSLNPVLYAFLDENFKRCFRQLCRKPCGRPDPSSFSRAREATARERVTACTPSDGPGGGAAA
- Test details: Antagonist activity at human delta opioid receptor expressed in CHO cells assessed as inhibition of DPDPE-stimulated [35S]GTPgammaS binding
- Assay type: functional, cell-based
Decision: Ke beneath 1000 nM gives criterion met; Ke meeting or exceeding 1000 nM gives criterion not met.

// below: answered compounds
1) Cc1cccc(Oc2ccc(C(=O)N[C@H](CN3CCN(c4cccc(O)c4)[C@@H](C)C3)C(C)C)cc2)c1O	criterion met
2) CC(C)[C@@H](CN1CCN(c2cccc(O)c2)[C@@H](C)C1)NC(=O)c1ccc(Oc2cccc(F)c2)cc1	criterion met
3) CC(C)[C@@H](CN1CCN(c2cccc(O)c2)[C@@H](C)C1)NC(=O)c1ccc(Oc2ccccc2O)cc1	criterion met
4) Cc1cc(C)cc(Oc2ccc(C(=O)N[C@H](CN3CCN(c4cccc(O)c4)[C@@H](C)C3)C(C)C)cc2)c1	criterion met

q: Lab note: confirm whether the reported Ke for this compound is below 1000 nM, equality not counting. compound: "CC(C)[C@@H](CN1CCN(c2cccc(O)c2)[C@H](C)C1)NC(=O)[C@H]1Cc2ccc(O)cc2CN1"
a: criterion not met

q: Hello, I'm reviewing records and need to know if Ke of "Cc1ccc(O)c(Oc2ccc(C(=O)N[C@H](CN3CCN(c4cccc(O)c4)[C@@H](C)C3)C(C)C)cc2Cl)c1" is below 1000 nM. Could you check?
a: criterion met

q: Decide: Ke of "COc1ccc(Oc2ccc(C(=O)N[C@H](CN3CCN(c4cccc(O)c4)[C@@H](C)C3)C(C)C)cc2)cc1" strictly below 1000 nM?
a: criterion not met

q: Is Ke of "CC(C)[C@@H](CN1CCN(c2cccc(O)c2)[C@@H](C)C1)NC(=O)c1ccc(Oc2ccccc2)cn1" strictly below 1000 nM?
a: criterion not met

----------
- System tested: Delta-type opioid receptor (Homo sapiens) (UniProt P41143)
- Test details: Intrinsic activity at human delta opioid receptor expressed in CHO cells at 10 uM by [35S]GTPgammaS binding assay
- Type: functional, cell-based
Active and inactive are the calls of the source. The rule behind the calls is not given here.
Reported endpoint: Activity

// below: answered compounds
1. Cc1cccc(Oc2ccc(C(=O)N[C@H](CN3CCN(c4cccc(O)c4)[C@@H](C)C3)C(C)C)cc2C)c1	inactive
2. COc1cc(C(=O)N[C@H](CN2CCN(c3cccc(O)c3)[C@@H](C)C2)C(C)C)ccc1Oc1cc(C)ccc1O	inactive
3. COc1ccc(Oc2ccc(C(=O)N[C@H](CN3CCN(c4cccc(O)c4)[C@@H](C)C3)C(C)C)cc2)cc1	inactive
4. Cc1ccc(Oc2ccc(C(=O)N[C@H](CN3CCN(c4cccc(O)c4)[C@@H](C)C3)C(C)C)cc2)cc1	inactive
5. Cc1ccc(O)c(Oc2ccc(C(=O)N[C@H](CN3CCN(c4cccc(O)c4)[C@@H](C)C3)C(C)C)cc2Cl)c1	inactive
6. COc1ccc(C(=O)N[C@H](CN2CCN(c3cccc(O)c3)[C@@H](C)C2)C(C)C)cc1OC	inactive
7. Cc1cccc(Oc2ccc(C(=O)N[C@H](CN3CCN(c4cccc(O)c4)[C@@H](C)C3)C(C)C)cc2)c1	inactive
8. CC(C)[C@@H](CN1CCN(c2cccc(O)c2)[C@@H](C)C1)NC(=O)c1ccc(Oc2cccc(C(F)(F)F)c2)cc1	inactive

q: I have this compound here, "Cc1cc(C(=O)N[C@H](CN2CCN(c3cccc(O)c3)[C@@H](C)C2)C(C)C)ccc1Oc1ccccc1" , and I need its recorded Activity.
a: inactive

q: Given "Cc1cccc(Oc2ccc(C(=O)N[C@H](CN3CCN(c4cccc(O)c4)[C@@H](C)C3)C(C)C)c(C)c2)c1" , state its recorded Activity.
a: inactive

q: Requested read-out: Activity. Entry: "Cc1cc(C)cc(Oc2ccc(C(=O)N[C@H](CN3CCN(c4cccc(O)c4)[C@@H](C)C3)C(C)C)cc2)c1"
a: inactive

q: Param item = "CC(C)[C@@H](CN1CCN(c2cccc(O)c2)[C@@H](C)C1)NC(=O)c1ccc(Oc2cccc(F)c2)cc1" ; retrieve measured Activity.
a: inactive

q: Given "Cc1cccc(Oc2ccc(C(=O)N[C@H](CN3CCN(c4cccc(O)c4)[C@@H](C)C3)C(C)C)c(O)c2)c1" , state its recorded Activity.
a: inactive

q: What value of Activity has been recorded for this entry: "CC(C)[C@@H](CN1CCN(c2cccc(O)c2)[C@@H](C)C1)NC(=O)c1ccc(Oc2cccc(Cl)c2)cc1"
a: inactive

q: State the recorded Activity for this entry: "Cc1ccc(O)c(Oc2ccc(C(=O)N[C@H](CN3CCN(c4cccc(O)c4)[C@@H](C)C3)C(C)C)cc2)c1"
a: inactive

q: For the compound "COc1cc(Oc2cccc(C)c2)ccc1C(=O)N[C@H](CN1CCN(c2cccc(O)c2)[C@@H](C)C1)C(C)C" , what Activity is on record?
a: inactive

----------
- Organism: Homo sapiens
- Test details: Selectivity ratio of Ke for human delta opioid receptor to Ke for human kappa opioid receptor
Reported endpoint: Ratio Ke
Enter a number only.

Example entries begin here.
1) Cc1cc(C)cc(Oc2ccc(C(=O)N[C@H](CN3CCN(c4cccc(O)c4)[C@@H](C)C3)C(C)C)cc2)c1	80
2) COc1ccc(Oc2ccc(C(=O)N[C@H](CN3CCN(c4cccc(O)c4)[C@@H](C)C3)C(C)C)cc2)cc1	2300
3) CC(C)[C@@H](CN1CCN(c2cccc(O)c2)[C@@H](C)C1)NC(=O)c1ccc(Oc2ccccc2)cc1	671
4) CC(C)[C@@H](CN1CCN(c2cccc(O)c2)[C@@H](C)C1)NC(=O)c1ccc(Oc2ccccc2O)cc1	906
5) Cc1cccc(Oc2ccc(C(=O)N[C@H](CN3CCN(c4cccc(O)c4)[C@@H](C)C3)C(C)C)c(O)c2)c1	463
6) CCCCc1ccc(C(=O)N[C@H](CN2CCN(c3cccc(O)c3)[C@@H](C)C2)C(C)C)cc1	83
7) COc1cc(C(=O)N[C@H](CN2CCN(c3cccc(O)c3)[C@@H](C)C2)C(C)C)ccc1Oc1ccccc1O	7

Could you now look at the following molecule, please?
q: GET /values?readout=Ratio Ke&item= "Cc1cc(C(=O)N[C@H](CN2CCN(c3cccc(O)c3)[C@@H](C)C2)C(C)C)ccc1Oc1ccccc1"
a: 691

----------
- Species: Homo sapiens
- Test details: Selectivity ratio of Ke for human mu opioid receptor to Ke for human kappa opioid receptor
Reported endpoint: Ratio Ke

q: Give the measured Ratio Ke of "CC(C)[C@@H](CN1CCN(c2cccc(O)c2)[C@@H](C)C1)NC(=O)c1ccc(Oc2ccccc2F)cc1" .
a: 28

----------
- Species: Homo sapiens
- Test details: Selectivity ratio of Ke for human delta opioid receptor to Ke for human kappa opioid receptor
Reported endpoint: Ratio Ke
Reply briefly: the number, and no unit.

Please review the entries below; each comes with its answer.
1. COc1cc(Oc2cccc(C)c2)ccc1C(=O)N[C@H](CN1CCN(c2cccc(O)c2)[C@@H](C)C1)C(C)C	48
2. COc1cc(C(=O)N[C@H](CN2CCN(c3cccc(O)c3)[C@@H](C)C2)C(C)C)ccc1Oc1cccc(C)c1	372
3. Cc1cccc(Oc2ccc(C(=O)N[C@H](CN3CCN(c4cccc(O)c4)[C@@H](C)C3)C(C)C)cc2)c1O	272
4. CC(C)[C@@H](CN1CCN(c2cccc(O)c2)[C@@H](C)C1)NC(=O)c1ccc(Oc2ccccc2F)cc1	126
5. COc1cccc(Oc2ccc(C(=O)N[C@H](CN3CCN(c4cccc(O)c4)[C@@H](C)C3)C(C)C)cc2)c1	2380

q: Look up Ratio Ke: "CC(C)[C@@H](CN1CCN(c2cccc(O)c2)[C@@H](C)C1)NC(=O)c1ccc(Oc2ccccc2)cn1"
a: 723

q: # query: Ratio Ke of entry "CC(C)[C@@H](CN1CCN(c2cccc(O)c2)[C@@H](C)C1)NC(=O)c1ccc(Oc2cccc(C(F)(F)F)c2)cc1"
a: 45

q: Consider the compound shown here: "CC(C)[C@@H](CN1CCN(c2cccc(O)c2)[C@@H](C)C1)NC(=O)c1ccc(Oc2ccccc2)nc1" What is its recorded Ratio Ke?
a: 1120

q: Quick one: Ratio Ke for "COc1cc(C(=O)N[C@H](CN2CCN(c3cccc(O)c3)[C@@H](C)C2)C(C)C)ccc1Oc1cc(C)ccc1O" ?
a: 19

q: GET /values?readout=Ratio Ke&item= "CC(C)[C@@H](CN1CCN(c2cccc(O)c2)[C@@H](C)C1)NC(=O)c1ccc(Oc2ccc(O)cc2)cc1"
a: 197

q: What value of Ratio Ke has been recorded for this entry: "Cc1ccc(O)c(Oc2ccc(C(=O)N[C@H](CN3CCN(c4cccc(O)c4)[C@@H](C)C3)C(C)C)cc2Cl)c1"
a: 5

q: Suppose we examine the compound "Cc1cccc(Oc2ccc(C(=O)N[C@H](CN3CCN(c4cccc(O)c4)[C@@H](C)C3)C(C)C)cc2)c1" ; what Ratio Ke value has been reported?
a: 771

q: Need Ratio Ke of "CC(C)[C@@H](CN1CCN(c2cccc(O)c2)[C@@H](C)C1)NC(=O)c1ccc(-c2ccccc2)cc1" , thanks.
a: 137

q: Which Ratio Ke reading was recorded for the compound "COc1ccccc1Oc1ccc(C(=O)N[C@H](CN2CCN(c3cccc(O)c3)[C@@H](C)C2)C(C)C)cc1" ?
a: 155

q: Ratio Ke lookup needed for "CC(C)[C@@H](CN1CCN(c2cccc(O)c2)[C@@H](C)C1)NC(=O)c1ccc(Oc2ccccc2O)c(Cl)c1" , thanks.
a: 42

q: So what's the measured Ratio Ke for this one? "Cc1cccc(Oc2ccc(C(=O)N[C@H](CN3CCN(c4cccc(O)c4)[C@@H](C)C3)C(C)C)cc2O)c1"
a: 142
